binding signal listing for selected sequences.
target: POU1 (OCT1 POU domain) (human, UniProt P14859 260-458)
Sequence (P14859 260-458): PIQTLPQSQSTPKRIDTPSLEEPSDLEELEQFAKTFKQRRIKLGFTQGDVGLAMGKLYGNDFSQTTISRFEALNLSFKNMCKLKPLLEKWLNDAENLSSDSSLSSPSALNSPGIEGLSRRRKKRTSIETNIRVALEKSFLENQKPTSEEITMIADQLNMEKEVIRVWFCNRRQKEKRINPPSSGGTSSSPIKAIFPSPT
run.description: EMSA-SELEX-seq; no BOB1; 20 mM Tris-HCl pH 7.6, 140 mM NaCl, 10% glycerol, 0.5 mM EDTA, 0.05% Triton X-100, 0.1 mg/mL BSA, 0.1 mg/mL poly(dI-dC), 5 mM DTT, room temperature, 20 min; high values mean tight binding
condition.set: protein: recombinant; dsDNA, one strand shown

Sample records with binding signal:
AGCCCAAT :: 0.0168 % of ANNNNAAN 8-mers
ACTTGAAT :: 0.0828 % of ANNNNAAN 8-mers
ACTCTAAG :: 0.0214 % of ANNNNAAN 8-mers

Endpoint output: binding signal of `ATGGAAAC` . Value?
0.0805 % of ANNNNAAN 8-mers

What value of binding signal has been reported for the following sequence? `ATTCCAAC`
0.0339 % of ANNNNAAN 8-mers

Dear colleague, I am looking for the recorded binding signal of the following sequence: `AATCTAAC`
0.0328 % of ANNNNAAN 8-mers

Query: binding signal; subject: `ACGCTAAG`
0.0202 % of ANNNNAAN 8-mers

For the sequence `AGTACAAA` , what binding signal is on record?
0.0336 % of ANNNNAAN 8-mers

====

target: POU1 (OCT1 POU domain);BOB1 (OBF1, OCA-B) (human;human, UniProt P14859;Q16633 260-458;1-256, |)
Sequence (P14859 260-458, chain 1 of 2): as the sequence (P14859 260-458) above
Sequence (Q16633 whole entry, chain 2 of 2, the tested form may be a part): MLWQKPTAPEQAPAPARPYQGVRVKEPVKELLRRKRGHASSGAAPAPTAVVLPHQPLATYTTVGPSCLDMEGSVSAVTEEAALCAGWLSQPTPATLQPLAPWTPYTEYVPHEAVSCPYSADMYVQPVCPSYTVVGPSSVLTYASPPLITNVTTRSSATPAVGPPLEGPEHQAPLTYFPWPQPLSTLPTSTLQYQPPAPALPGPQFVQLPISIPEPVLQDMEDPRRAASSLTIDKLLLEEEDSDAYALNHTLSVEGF
run.description: EMSA-SELEX-seq; with BOB1 (ternary complex band); 20 mM Tris-HCl pH 7.6, 140 mM NaCl, 10% glycerol, 0.5 mM EDTA, 0.05% Triton X-100, 0.1 mg/mL BSA, 0.1 mg/mL poly(dI-dC), 5 mM DTT, room temperature, 20 min; high values mean tight binding
condition.set: protein: recombinant;recombinant; copies: 1;1; dsDNA, one strand shown
# binding signal annotations

Which binding signal value is on record for `ACGTGAAG` ?
0.0258 % of ANNNNAAN 8-mers

What binding signal value was documented for this sequence, `AAGGAAAC` ?
0.0511 % of ANNNNAAN 8-mers

Dear colleague, I am looking for the recorded binding signal of the following sequence: `AGACGAAG`
0.0203 % of ANNNNAAN 8-mers

Fill blank: measured binding signal of the sequence `AGCGAAAA` is ____.
0.0418 % of ANNNNAAN 8-mers

So what does the record say about binding signal for `AAGTTAAA` ?
0.0901 % of ANNNNAAN 8-mers

Data request, read-out binding signal, for `ACAGCAAT`
0.0281 % of ANNNNAAN 8-mers

binding signal for `ATACAAAA` ?
0.195 % of ANNNNAAN 8-mers

Request the reported binding signal associated with `AGATAAAA`
0.0597 % of ANNNNAAN 8-mers

Report binding signal for `AAGATAAA` please.
0.0585 % of ANNNNAAN 8-mers

====

# binding signal per entry
target: POU1 (OCT1 POU domain) (human, UniProt P14859 260-458)
run.description: EMSA-SELEX-seq; no BOB1; 20 mM Tris-HCl pH 7.6, 140 mM NaCl, 10% glycerol, 0.5 mM EDTA, 0.05% Triton X-100, 0.1 mg/mL BSA, 0.1 mg/mL poly(dI-dC), 5 mM DTT, room temperature, 20 min; high values mean tight binding
condition.set: protein: recombinant; dsDNA, one strand shown

For orientation, consider the following solved cases.
ACTTCAAC :: 0.0145 % of ANNNNAAN 8-mers
ATAGCAAT :: 0.0515 % of ANNNNAAN 8-mers
ATTACAAA :: 0.0919 % of ANNNNAAN 8-mers
AGCTTAAA :: 0.037 % of ANNNNAAN 8-mers
AGGCTAAT :: 0.133 % of ANNNNAAN 8-mers

Alright, here's another sequence for you.
What is its binding signal for POU1 (OCT1 POU domain) (human, UniProt P14859 260-458)? Entry: `AGGCCAAT`
0.0339 % of ANNNNAAN 8-mers

====

target: POU2 (OCT2 POU domain) (human, UniProt P09086 175-386)
Sequence: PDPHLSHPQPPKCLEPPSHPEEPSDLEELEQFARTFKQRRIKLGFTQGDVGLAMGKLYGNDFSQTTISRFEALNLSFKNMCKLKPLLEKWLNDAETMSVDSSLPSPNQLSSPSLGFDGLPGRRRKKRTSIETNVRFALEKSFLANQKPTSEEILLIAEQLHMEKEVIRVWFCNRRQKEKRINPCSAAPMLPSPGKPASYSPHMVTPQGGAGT
run.description: EMSA-SELEX-seq; no BOB1; 20 mM Tris-HCl pH 7.6, 140 mM NaCl, 10% glycerol, 0.5 mM EDTA, 0.05% Triton X-100, 0.1 mg/mL BSA, 0.1 mg/mL poly(dI-dC), 5 mM DTT, room temperature, 20 min; high values mean tight binding
condition.set: protein: recombinant; dsDNA, one strand shown
binding signal values, listed per item

API: value(readout= binding signal, system= POU2 (OCT2 POU domain) (human, UniProt P09086 175-386), query= `AGTACAAC` )
0.0173 % of ANNNNAAN 8-mers

Give binding signal (POU2 (OCT2 POU domain) (human, UniProt P09086 175-386)) of the following sequence: `AATCCAAA`
0.0386 % of ANNNNAAN 8-mers

What binding signal appears in the records for this sequence with POU2 (OCT2 POU domain) (human, UniProt P09086 175-386)? `AGTTGAAG`
0.0316 % of ANNNNAAN 8-mers

Give recorded binding signal with POU2 (OCT2 POU domain) (human, UniProt P09086 175-386) for the following sequence: `AAACTAAA`
0.0483 % of ANNNNAAN 8-mers

// lookup binding signal | system=POU2 (OCT2 POU domain) (human, UniProt P09086 175-386) | key= `AACACAAG`
0.0253 % of ANNNNAAN 8-mers

Field: binding signal (POU2 (OCT2 POU domain) (human, UniProt P09086 175-386)). Entry: `ACCTTAAC`
0.0173 % of ANNNNAAN 8-mers

GET /values?readout=binding signal&system=POU2 (OCT2 POU domain) (human, UniProt P09086 175-386)&item= `AATTGAAG`
0.0725 % of ANNNNAAN 8-mers

What measured binding signal is associated with `ACGTAAAG` on POU2 (OCT2 POU domain) (human, UniProt P09086 175-386)?
0.0409 % of ANNNNAAN 8-mers

Which measured binding signal belongs to `ACTCCAAT` , tested on POU2 (OCT2 POU domain) (human, UniProt P09086 175-386)?
0.0219 % of ANNNNAAN 8-mers

Give the reported binding signal for `ATACGAAA` (system: POU2 (OCT2 POU domain) (human, UniProt P09086 175-386)).
0.0777 % of ANNNNAAN 8-mers

Under POU2 (OCT2 POU domain) (human, UniProt P09086 175-386): binding signal value of `AGAAAAAT` ?
0.0886 % of ANNNNAAN 8-mers

====

target: POU1 (OCT1 POU domain) (human, UniProt P14859 260-458)
run.description: EMSA-SELEX-seq; no BOB1; 20 mM Tris-HCl pH 7.6, 140 mM NaCl, 10% glycerol, 0.5 mM EDTA, 0.05% Triton X-100, 0.1 mg/mL BSA, 0.1 mg/mL poly(dI-dC), 5 mM DTT, room temperature, 20 min; high values mean tight binding
condition.set: protein: recombinant; dsDNA, one strand shown
Reported binding signal values are given for each entry in this list.

Some sequences with known binding signal results, for comparison:
AAAATAAG :: 0.13 % of ANNNNAAN 8-mers
AAAAAAAC :: 0.0583 % of ANNNNAAN 8-mers
ATGTAAAA :: 0.714 % of ANNNNAAN 8-mers
ATAATAAC :: 0.0873 % of ANNNNAAN 8-mers
ACGGAAAG :: 0.0397 % of ANNNNAAN 8-mers
ACGTAAAA :: 0.0648 % of ANNNNAAN 8-mers
ACGATAAT :: 0.0896 % of ANNNNAAN 8-mers
ATTATAAA :: 0.152 % of ANNNNAAN 8-mers

binding signal lookup needed for `AAGGTAAT` , thanks.
0.122 % of ANNNNAAN 8-mers

Which binding signal is listed for `ATCGGAAC` ?
0.0175 % of ANNNNAAN 8-mers

Any idea what binding signal was measured for `AAGTAAAC` ?
0.0477 % of ANNNNAAN 8-mers

Given the entry `AACGGAAT` , report its measured binding signal.
0.0698 % of ANNNNAAN 8-mers

What value of binding signal has been reported for the following sequence? `AAAACAAG`
0.0641 % of ANNNNAAN 8-mers
